System: COLO-680N;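 note: cell viability assay used to measure inhibition of COLO-680N cell growth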
Test: cells
Format: functional, cell-based
Details: Homo sapiens
Description: SANGER: Inhibition of human COLO-680N cell growth in a cell viability assay.
experimental readout: pIC50
As a rule, pIC50 stands for the negative log10 of the concentration, concentration in M.

{"chemical string": "CCNC(=O)c1noc(-c2cc(C(C)C)c(O)cc2O)c1-c1ccc(CN2CCOCC2)cc1", "pIC50": 7.36}

# next compound below
For reference, reported pIC50 for `CC[C@@]1(O)C(=O)OCc2c1cc1n(c2=O)Cc2cc3ccccc3nc2-1` stands at 7.14

###

System: NCI-H1792;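 note: growth inhibition of human NCI-H1792 cells, read out as cell viability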
Assay: cells
Type: functional, cell-based
Conditions: Homo sapiens
Description: SANGER: Inhibition of human NCI-H1792 cell growth in a cell viability assay.
experimental readout: pIC50
To interpret pIC50, take it as minus log10 of a concentration measured in moles per litre.

Given item `Cn1c(=O)n(-c2ccc(C(C)(C)C#N)cc2)c2c3cc(-c4cnc5ccccc5c4)ccc3ncc21` , the value recorded as its pIC50 is 7.18

###

System: MES-SA;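 note: growth inhibition of human MES-SA cells, read out with a cell viability assay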
Experiment: cells
Assay type: functional, cell-based
Conditions: Homo sapiens
Description: SANGER: Inhibition of human MES-SA cell growth in a cell viability assay.
Items are presented alongside their recorded pIC50.
Answer as the number alone; pIC50 is minus log10 of concentration in mol/L.

# CC(C)=CC[C@@H](O)C1=CC(=O)c2c(O)ccc(O)c2C1=O [SHIKONIN] with MES-SA: pIC50 is 7.38

pIC50 of CO[C@@]12[C@H](COC(N)=O)C3=C(C(=O)C(C)=C(N)C3=O)N1C[C@@H]1N[C@@H]12 [MITOMYCIN] , assay on MES-SA, is 6.84

# `Fc1cc(-c2cc[nH]/c(=N/c3ccc(-n4cnc(N5CCOCC5)n4)cc3)n2)cc(N2CCOCC2)c1` with MES-SA: pIC50 is 6.14

###

Measured IC50, listed per entry for reference.
Test system: A704
Assay: cells
Assay type: functional, cell-based
Settings: Homo sapiens
Description: SANGER: Inhibition of human A704 cell growth in a cell viability assay.

Observe how each entry below is paired with its result.
{"chemical string": "CC(C)=CC[C@@H](O)C1=CC(=O)c2c(O)ccc(O)c2C1=O", "result": "2700 nM"}
{"chemical string": "CCNC(=O)c1noc(-c2cc(C(C)C)c(O)cc2O)c1-c1ccc(CN2CCOCC2)cc1", "result": "> 256 nM"}
{"chemical string": "Cn1cc(/C=C2\\C(=O)Nc3cccnc32)c2ccccc21", "result": "> 2000 nM"}
{"chemical string": "CC[C@]1(O)C[C@@H]2CN(CCc3c([nH]c4ccccc34)[C@@](C(=O)OC)(c3cc4c(cc3OC)N(C)[C@H]3[C@@](O)(C(=O)OC)[C@H](OC(C)=O)[C@]5(CC)C=CCN6CC[C@]43[C@@H]65)C2)C1", "result": "> 100 nM"}
{"chemical string": "CC[C@@]1(O)C(=O)OCc2c1cc1n(c2=O)Cc2cc3ccccc3nc2-1", "result": "15.4 nM"}

Consider the record given below.
`C/C(O)=C(\C#N)C(=O)Nc1cc(Br)ccc1Br` yielded IC50 of > 16000 nM

###

System: BL-70
Experiment: SANGER: Inhibition of human BL-70 cell growth in a cell viability assay.
Assay type: functional, cell-based
pIC50: −log10 of the molar value.
This listing pairs compounds with measured pIC50.

{"compound": "CCn1c(-c2nonc2N)nc2cnc(Oc3cccc(NC(=O)c4ccc(OCCN5CCOCC5)cc4)c3)cc21 [GSK-269962A]", "pIC50": "< 5.60"}
{"compound": "Cc1ccc(NC(=O)c2cccc(C(C)(C)C#N)c2)cc1Nc1ccc2ncn(C)c(=O)c2c1", "pIC50": 5.54}
{"compound": "C/C(O)=C(\\C#N)C(=O)Nc1cc(Br)ccc1Br", "pIC50": "< 4.80"}
{"compound": "Cc1[nH]c(/C=C2\\C(=O)Nc3ccc(S(=O)(=O)Cc4c(Cl)cccc4Cl)cc32)c(C)c1C(=O)N1CCC[C@@H]1CN1CCCC1", "pIC50": "< 5.70"}

Sample `CCNc1cc(N[C@H]2CC[C@@H](O)CC2)nc(Nc2ccc3c(ccn3Cc3ccccc3)c2)n1` , system: BL-70. Its pIC50 is < 5.29

Field pIC50 (system: BL-70) for entry `C/C=C(/C)C(=O)O[C@H]1C(C)=C2[C@H]([C@@H]1OC(=O)CCCCCCC)[C@@](C)(OC(C)=O)C[C@H](OC(=O)CCC)[C@@]1(O)[C@H]2OC(=O)[C@@]1(C)O` = 8.05

###

System: COR-L105
Assay: cells
Format: functional, cell-based
Conditions: Homo sapiens
Description: SANGER: Inhibition of human COR-L105 cell growth in a cell viability assay.
pIC50: −log10 of the molar value.
experimental readout: pIC50

Examples from the recorded data:
{"compound": "Fc1cc(-c2cc[nH]/c(=N/c3ccc(-n4cnc(N5CCOCC5)n4)cc3)n2)cc(N2CCOCC2)c1", "pIC50": 6.63}
{"compound": "C[C@]12O[C@H](C[C@]1(O)CO)n1c3ccccc3c3c4c(c5c6ccccc6n2c5c31)CNC4=O", "pIC50": "< 5.70"}
{"compound": "CC(O)(CS(=O)(=O)c1ccc(F)cc1)C(=O)Nc1ccc(C#N)c(C(F)(F)F)c1 (centres undefined) [BICALUTAMIDE]", "pIC50": "< 5.99"}

compound `C[C@]1(c2nc3c(C(N)=O)cccc3[nH]2)CCCN1` , pIC50 observed: < 5.30

###

Reported pIC50 by item:
Tested on: EGI-1;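 note: cell viability readout used to gauge growth inhibition of EGI-1 cells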
Assay: cells
Format: functional, cell-based
Conditions: Homo sapiens
Description: SANGER: Inhibition of human EGI-1 cell growth in a cell viability assay.
Quick note: pIC50 means taking -log10 of the concentration in moles per liter.

{"chemical string": "CC[C@]1(O)C[C@@H]2CN(CCc3c([nH]c4ccccc34)[C@@](C(=O)OC)(c3cc4c(cc3OC)N(C)[C@H]3[C@@](O)(C(=O)OC)[C@H](OC(C)=O)[C@]5(CC)C=CCN6CC[C@]43[C@@H]65)C2)C1", "experimental readout": "pIC50", "numeric value": 7.97}

Consider the record given below.
// pIC50 lookup, molecule = `CC(C)=CC[C@@H](O)C1=CC(=O)c2c(O)ccc(O)c2C1=O` , result: 5.60

###

Tested on: DMS-114
Test: cells
Assay type: functional, cell-based
Details: Homo sapiens
experimental readout: IC50

As a guide, the following entries are already answered.
{"chemical string": "O=c1[nH]c2ccccc2n1C1CCN(Cc2ccc(-c3nc4cc5[nH]cnc5cc4nc3-c3ccccc3)cc2)CC1", "IC50": "> 2.56 µM"}
{"chemical string": "Cc1ccc(NC(=O)c2cccc(C(C)(C)C#N)c2)cc1Nc1ccc2ncn(C)c(=O)c2c1", "IC50": "> 4 µM"}
{"chemical string": "C[C@]12O[C@H](C[C@]1(O)CO)n1c3ccccc3c3c4c(c5c6ccccc6n2c5c31)CNC4=O", "IC50": "1.52 µM"}

Consider `O=c1cc(N2CCOCC2)oc2c(-c3cccc4c3sc3ccccc34)cccc12` . Its measured IC50 is > 2 µM

Per the record, `Cc1nc(Nc2ncc(C(=O)Nc3c(C)cccc3Cl)s2)cc(N2CCN(CCO)CC2)n1` has IC50 of > 1.28 µM

// field: IC50; key: `Fc1cc(-c2cc[nH]/c(=N/c3ccc(-n4cnc(N5CCOCC5)n4)cc3)n2)cc(N2CCOCC2)c1` ; value = > 5.12 µM

###

Tested on: MFM-223
Experiment: cells
Format: functional, cell-based
Details: Homo sapiens
Description: SANGER: Inhibition of human MFM-223 cell growth in a cell viability assay.
experimental readout: IC50

Example compounds with recorded IC50:
{"compound": "CC(O)(CS(=O)(=O)c1ccc(F)cc1)C(=O)Nc1ccc(C#N)c(C(F)(F)F)c1 (centres undefined) [BICALUTAMIDE]", "IC50": "> 1020 nM"}
{"compound": "Cc1ccc(NC(=O)c2cccc(C(C)(C)C#N)c2)cc1Nc1ccc2ncn(C)c(=O)c2c1", "IC50": "> 4000 nM"}
{"compound": "CC[C@@]1(O)C(=O)OCc2c1cc1n(c2=O)Cc2cc3ccccc3nc2-1 [CAMPTOTHECIN]", "IC50": "> 100 nM"}

For the next question, use this compound.
Notebook: Cc1n[nH]c2ccc(-c3cncc(OC[C@@H](N)Cc4c[nH]c5ccccc45)c3)cc12 [A-443654] , IC50 read as > 1020 nM

###

System: HT-1376
Test: cells
Type: functional, cell-based
Details: Homo sapiens
Description: SANGER: Inhibition of human HT-1376 cell growth in a cell viability assay.
experimental readout: pIC50
The meaning of pIC50 here: minus log10 of the concentration in molar units.

{"chemical string": "CC[C@]1(O)C[C@@H]2CN(CCc3c([nH]c4ccccc34)[C@@](C(=O)OC)(c3cc4c(cc3OC)N(C)[C@H]3[C@@](O)(C(=O)OC)[C@H](OC(C)=O)[C@]5(CC)C=CCN6CC[C@]43[C@@H]65)C2)C1", "numeric value": 7.22}

Pending compound:
The reported pIC50 of the compound `N#C/C(=C1/Nc2ccccc2S1)c1ccnc(NCCc2cccnc2)n1` was 5.14

###

Tested on: CCF-STTG1;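 note: growth inhibition of human CCF-STTG1 cells, determined with a cell viability read-out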
Test: cells
Format: functional, cell-based
Conditions: Homo sapiens
Description: SANGER: Inhibition of human CCF-STTG1 cell growth in a cell viability assay.
Recorded pIC50, one value per entry.
Please report pIC50 as the negative decimal logarithm of the molar concentration, giving only the number.

{"chemical string": "C/C=C(/C)C(=O)O[C@H]1C(C)=C2[C@H]([C@@H]1OC(=O)CCCCCCC)[C@@](C)(OC(C)=O)C[C@H](OC(=O)CCC)[C@@]1(O)[C@H]2OC(=O)[C@@]1(C)O", "pIC50": 7.17}

Now for the molecule whose pIC50 we want.
Notebook: `CCNC(=O)c1noc(-c2cc(C(C)C)c(O)cc2O)c1-c1ccc(CN2CCOCC2)cc1` , pIC50 read as 8.53
